Exercise: state measured GI50 for each of the compounds provided.
Tested on: SN12C
Test: NCI tumour cell line growth inhibition, 48 h
Calls of active or inactive are those of the source. No stated cut-off is given here; in the data, active = GI50 up to about 1.1 µM and inactive = higher.

These solved cases illustrate the format of a correct answer.
[[record]]
compound = "FC(F)(F)c1nc2nc(Cl)c(Cl)nc2n1CCCN1CCOCC1"
measurement_type = "GI50"
value = "84.9 µM (inactive)"

[[record]]
compound = "CC1(C)OC[C@@H]([C@@]2(COC(c3ccccc3)(c3ccccc3)c3ccccc3)CC=CC(=O)O2)O1"
measurement_type = "GI50"
value = "30.8 µM (inactive)"

[[record]]
compound = "CC(C)(C)c1cc(C(C)(C)C)c(P=C(Cl)Cl)c(C(C)(C)C)c1 (configuration not stated)"
measurement_type = "GI50"
value = "> 100 µM (inactive)"

[[record]]
compound = "CNc1ncc(-c2nnnn2-c2ccccc2)c(CN(C)C)n1"
measurement_type = "GI50"
value = "> 100 µM (inactive)"

[[record]]
compound = "Cc1nc(N)sc1C(=O)/C=C\\c1ccc2c(c1)OCO2"
measurement_type = "GI50"
value = "> 100 µM (inactive)"

[[record]]
compound = "NCCCNCCSP(=O)(O)O"
measurement_type = "GI50"
value = "> 750 µM (inactive)"

[[record]]
compound = "Cc1ccc(C(=O)C2=CN=C3C(=O)N(c4ccccc4)N(C)C3(C)C2=N)cc1 (configuration not stated)"
measurement_type = "GI50"
value = "> 100 µM (inactive)"

[[record]]
compound = "CC(/C=C/C=C/C=C/C=C/C=C/C(=O)C1=C(O)C(CCC(=O)O)N(C)C1=O)=C\\C(C)C(OC1CC(O)C(O)C(C)O1)C(C)C (configuration not stated)"
measurement_type = "GI50"
value = "3.33 µM (inactive)"

[[record]]
compound = "CCCNC(=S)N/N=C1\\C(=O)Nc2ccccc21"
measurement_type = "GI50"
value = "> 100 µM (inactive)"

[[record]]
compound = "O=c1c(Br)cc2nc3ccccc3sc-2c1Br"
measurement_type = "GI50"
value = "> 100 µM (inactive)"


Parameters: items (list). Returns: GI50 for each item.
1. O=C(Cn1ccnc1[N+](=O)[O-])NCCO
2. O=[N+]([O-])c1ccc(C(c2c[nH]c3ccccc23)c2c[nH]c3ccccc23)cc1

Out:
1: > 100 µM (inactive); 2: 14.4 µM (inactive)

----------
Exercise: state measured GI50 for each of the compounds provided.
Tested on: UACC-257
Test: NCI tumour cell line growth inhibition, 48 h
The source made the active and inactive calls. No stated cut-off is given here; in the data, active = GI50 up to about 1.1 µM and inactive = higher.

[[record]]
smiles_str = "O=c1c(Br)cc2nc3ccccc3sc-2c1Br"
value = "31.3 µM (inactive)"


Parameters: items (list). Returns: GI50 for each item.
1. COc1cc2c[n+](C)c3c4cc(OC)c(OC)cc4c(OCCCCCCCCOc4cc5c6cc(OC)c(OC)cc6c[n+](C)c5c5cc(OC)c(OC)cc45)cc3c2cc1OC
2. COc1cccc2c3cccc(OC)c3c3[nH]cnc3c12
3. CCOC(=O)c1ccc(/N=N\c2ccc(N(CCC#N)CCC#N)cc2C)cc1
4. COc1ccc(OC)c(C(=O)c2cccc(C(=O)c3cc(OC)ccc3OC)n2)c1

Out:
["> 100 µM (inactive)", "17.7 µM (inactive)", "> 100 µM (inactive)", "53.2 µM (inactive)"]

Parameters: items (list). Returns: GI50 for each item.
1. O=C(/C=C/c1ccc(OCc2ccccc2)c(OCc2ccccc2)c1)OCc1ccccc1
2. COC(=O)C(C#N)=C1c2ccccc2Oc2ccccc21
3. O=C1C(=O)N(c2ccc(Cl)cc2Cl)C(=O)C(=O)C1c1nc2ccccc2o1
4. CCN(C(=O)/C=C/c1ccco1)c1ccccc1

Out:
["> 100 µM (inactive)", "> 100 µM (inactive)", "> 100 µM (inactive)", "> 100 µM (inactive)"]

In: Fill in the recorded GI50 for this compound, with UACC-257 as test system: O=C1C=CC2(C=C1)O[C@H](Cc1ccccc1)[C@@H](Cc1ccccc1)O2
Out: 1.28 µM (inactive)
